These entries and their values trace back to the CombiSolv-Exp solvation set (Vermeire and Green 2021).

# ASSAY_EXPLANATION: solvent given as SMILES
# TEST_CONTEXT: in CCCCCCCCCC
Flag rule - solvation free energy, 298 K less than -4 kcal/mol flags 1 (yes); the remaining entries get 0 (no).

>>> print(df.to_string())
                     compound  label_value
0                   Fc1ccccc1       0 (no)
1                 CCCCCC(C)=O      1 (yes)
2                       C=CCC       0 (no)
3  O=C(C(=O)c1ccccc1)c1ccccc1      1 (yes)
4                      CCCCCO      1 (yes)
5                  Clc1ccccc1      1 (yes)
6                   Cc1ccccc1      1 (yes)
7                    CCCC(C)C       0 (no)

Lab note: next compound to report on.
Task: Report whether reported solvation free energy, 298 K is lower than -4 kcal/mol (strictly) for `CN(C)C(=O)Nc1ccc(Cl)cc1`
Output: 1 (yes)

====

Reported solvation free energy, 298 K values for the following molecules.
# ASSAY_EXPLANATION: solvent given as SMILES
# TEST_CONTEXT: in ClC=CCl
Answer with a number only, understood to be in kcal/mol.

Worked examples follow.
In [3]: df
Out[3]:
                                 cpd_smiles       uom  meas_value
0  COc1cc(C(C)=O)cc(-c2cc(C(C)=O)cc(OC)c2O)c1O  kcal/mol         -22
1     COc1cc(C=O)cc(-c2cc(C=O)cc(OC)c2O)c1O  kcal/mol       -20.6
2                       COc1cc(C(C)=O)ccc1O  kcal/mol         -12
3                                   C1CCCC1  kcal/mol       -3.78

Task: Which value of solvation free energy, 298 K has been reported for `COC(=O)c1cc(OC)c(O)c(-c2cc(C(=O)OC)cc(OC)c2O)c1` in the records?
Output: -21.7

====

Reported solvation free energy, 298 K values for the following compounds.
# ASSAY_EXPLANATION: solvent given as SMILES
# TEST_CONTEXT: in O
Answer with a number only, understood to be in kcal/mol.

Worked examples follow.
In [3]: df
Out[3]:
                                   compound  meas_value
0                                 CN1CCNCC1       -7.77
1                                 C=CCCCC=C        1.16
2                               CCCC(=O)CCC       -2.92
3  CC(=O)OC1CCC2(C)C(=CCC3C2CCC2(C)C(C(C)CCCC(C)C)CCC32)C1 (stereo unspecified)       -5.48
4                FC(F)(F)c1cccc(C(F)(F)F)c1        1.07
5                            CCCCCCCCC(C)=O       -2.34

Task: Which value of solvation free energy, 298 K has been reported for `CCCOC(=O)CCC` in the records?
Output: -2.28

Task: Ok, now `OCCCO`
Output: -9.96

Task: Ok, now `Cc1ccc(C)c(C)c1`
Output: -0.83

Task: Ok, now `CCCCCC(C)=O`
Output: -3.09

Task: Ok, now `FCCl`
Output: -0.77

Task: Ok, now `Cc1cccs1`
Output: -1.38

Task: Ok, now `Cc1cccc(C(C)C)c1`
Output: -0.72

Task: Ok, now `Cc1ccccc1C(=O)O`
Output: -5.87

Task: Ok, now `CCCC(=O)O`
Output: -6.34

Task: Ok, now `COCCOC(=O)c1ccccc1C(=O)OCCOC`
Output: -13.5

Task: Ok, now `OC1CCCCCC1`
Output: -5.48

Task: Ok, now `C=CCCCCCCC`
Output: 2.06

Task: Ok, now CC1=CC2C(=C(C)CCC2C(C)C)CC1 (stereo unspecified)
Output: -0.4

Task: Ok, now `Cc1cc(C)cc(O)c1`
Output: -6.28

Task: Ok, now `C1CCNCC1`
Output: -5.11

Task: Ok, now `Clc1c(Cl)c(Cl)c2ccccc2c1Cl`
Output: -2.69

Task: Ok, now `Brc1c(Br)c(Br)c(Br)c(Br)c1Br`
Output: -3.08

Task: Ok, now `ClCCl`
Output: -1.32

Task: Ok, now `CCCCCCCCCC(C)=O`
Output: -2.15

Task: Ok, now `O=[N+]([O-])c1ccc(CCl)cc1`
Output: -5.14

====

Reported solvation free energy, 298 K values for the following compounds.
# ASSAY_EXPLANATION: solvent given as SMILES
# TEST_CONTEXT: in CCCCC(CC)CO
Write the numeric value and follow it with the unit.

In [3]: df
Out[3]:
                     cpd_smiles      meas_value
0        O=c1c2ccccc2sc2ccccc12    -12 kcal/mol
1        c1ccc2c(c1)Nc1ccccc1S2  -12.7 kcal/mol
2  c1ccc2c(c1)-c1cccc3cccc-2c13  -11.5 kcal/mol
3          c1cc2c3c(cccc3c1)CC2  -8.66 kcal/mol

Task: Which value of solvation free energy, 298 K has been reported for `O=C(C(=O)c1ccccc1)c1ccccc1` in the records?
Output: -10.8 kcal/mol

Task: Ok, now `CN(C)C(=O)Nc1ccc(Cl)cc1`
Output: -12.8 kcal/mol

====

Reported solvation free energy, 298 K values for the following compounds.
# ASSAY_EXPLANATION: solvent given as SMILES
# TEST_CONTEXT: in CC(=O)c1ccccc1
Answer with a number only, understood to be in kcal/mol.

>>> print(df.to_string())
    cpd_smiles                 property_name  meas_value
0  CC(C)CC(C)C  solvation free energy, 298 K       -3.18

Task: Which value of solvation free energy, 298 K has been reported for `Cc1ccccc1` in the records?
Output: -4.93

Task: Ok, now `C1CCCCC1`
Output: -3.52

Task: Ok, now `c1ccccc1`
Output: -4.28

Task: Ok, now `CCCC(C)C`
Output: -2.84

====

Reported solvation free energy, 298 K values for the following compounds.
# ASSAY_EXPLANATION: solvent given as SMILES
# TEST_CONTEXT: in CCCCC(CC)COC(=O)CCCCC(=O)OCC(CC)CCCC
Answer with a number only, understood to be in kcal/mol.

In [3]: df
Out[3]:
   cpd_smiles       uom  meas_value
0   Cc1ccccc1  kcal/mol       -4.78
1        CCCO  kcal/mol       -4.07
2      C=CCCC  kcal/mol       -2.66
3    COC(C)=O  kcal/mol       -3.19
4    c1ccccc1  kcal/mol       -4.09
5    C=CCCCCC  kcal/mol       -4.03
6    C1CCCCC1  kcal/mol       -3.77

Switching to the query record.
Task: Which value of solvation free energy, 298 K has been reported for `CCCCOC(C)=O` in the records?
Output: -4.89

====

# ASSAY_EXPLANATION: solvent given as SMILES
# TEST_CONTEXT: in CCOCCO
Flag rule - solvation free energy, 298 K less than -5 kcal/mol flags Met; the remaining entries get Not met.

In [3]: df
Out[3]:
           cpd_smiles  label_value
0            C1CCCCC1      Not met
1  CC(=O)Nc1ccc(O)cc1          Met

Task: Report whether reported solvation free energy, 298 K is lower than -5 kcal/mol (strictly) for `O=c1c2ccccc2sc2ccccc12`
Output: Met

====

# ASSAY_EXPLANATION: solvent given as SMILES
# TEST_CONTEXT: in CCCCCN(CCCCC)CCCCC
Reported solvation free energy, 298 K values for the following compounds.
Answer with a number only, understood to be in kcal/mol.

>>> print(df.to_string())
      cpd_smiles                 property_name  meas_value
0  ClC(Cl)(Cl)Cl  solvation free energy, 298 K       -3.96
1       C1CCCCC1  solvation free energy, 298 K       -4.01
2          ClCCl  solvation free energy, 298 K       -2.99

Switching to the query record.
Task: Which value of solvation free energy, 298 K has been reported for `ClCCCl` in the records?
Output: -3.76
